assayed_system: T1, human Y2 receptor (human, UniProt P49146 1-381)
T1 sequence (looked up): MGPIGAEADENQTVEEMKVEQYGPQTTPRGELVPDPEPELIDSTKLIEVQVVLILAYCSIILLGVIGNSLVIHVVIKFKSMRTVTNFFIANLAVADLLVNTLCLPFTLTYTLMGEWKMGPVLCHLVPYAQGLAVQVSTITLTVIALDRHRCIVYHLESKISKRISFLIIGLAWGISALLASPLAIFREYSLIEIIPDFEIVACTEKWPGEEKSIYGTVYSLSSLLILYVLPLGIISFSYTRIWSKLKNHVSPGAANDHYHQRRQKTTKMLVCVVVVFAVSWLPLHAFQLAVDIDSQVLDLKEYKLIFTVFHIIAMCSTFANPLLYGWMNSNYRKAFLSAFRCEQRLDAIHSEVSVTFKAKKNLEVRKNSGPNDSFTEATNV
protocol_summary: cell-based or functional assay
Starred links: 1 amine or outer side, 2 acyl side, 3 side chain; linkers in the order of their positions; H or OH if unused. Non-standard residues stand in square brackets, D forms with d. No end group written: not given here. Phe(4-Me) = Cc1ccc(C[C@H](N)C(=O)O)cc1; Cha = N[C@@H](CC1CCCCC1)C(=O)O; Suc = O=C(CCC(=O)[*:2])[*:1]; 4Amb = NCc1ccc(C(=O)O)cc1; Nle = CCCC[C@H](N)C(=O)O; Aib = CC(C)(N)C(=O)O
Each entry below carries its recorded GBA EC50 Ratio (vs PYY(3-36)), [35S]GTPγS.
Quick note: give the figure in ratio, leave out the unit.

# example entries with known answers
1) [4Amb]RAYINL[Cha]TRQRY-NH2 (N-terminus assumed; SMILES CC[C@H](C)[C@H](NC(=O)[C@H](Cc1ccc(O)cc1)NC(=O)[C@H](C)NC(=O)[C@H](CCCNC(=N)N)NC(=O)c1ccc(CN)cc1)C(=O)N[C@@H](CC(N)=O)C(=O)N[C@@H](CC(C)C)C(=O)N[C@@H](CC1CCCCC1)C(=O)N[C@H](C(=O)N[C@@H](CCCNC(=N)N)C(=O)N[C@@H](CCC(N)=O)C(=O)N[C@@H](CCCNC(=N)N)C(=O)N[C@@H](Cc1ccc(O)cc1)C(N)=O)[C@@H](C)O, also called compound No. 41) [4-Aminomethylbenzoyl-[Ala26, Ile28, Cha31]-PYY(25-36)] = 8.7
2) Ac-N[dP]RH[Cha][Cha]NL[Aib]TRQR[Cha]-NH2 (SMILES CC(=O)N[C@@H](CC(N)=O)C(=O)N1CCC[C@@H]1C(=O)N[C@@H](CCCNC(=N)N)C(=O)N[C@@H](Cc1c[nH]cn1)C(=O)N[C@@H](CC1CCCCC1)C(=O)N[C@@H](CC1CCCCC1)C(=O)N[C@@H](CC(N)=O)C(=O)N[C@@H](CC(C)C)C(=O)NC(C)(C)C(=O)N[C@H](C(=O)N[C@@H](CCCNC(=N)N)C(=O)N[C@@H](CCC(N)=O)C(=O)N[C@@H](CCCNC(=N)N)C(=O)N[C@@H](CC1CCCCC1)C(N)=O)[C@@H](C)O, also called compound No. 115) [Ac-[Asn23, D-Pro24, Cha27,28,36, Aib31]-PYY(23-36)] = 1.7
3) [4Amb]RAY[Nle]NLITRQRY-NH2 (N-terminus assumed; SMILES CCCC[C@H](NC(=O)[C@H](Cc1ccc(O)cc1)NC(=O)[C@H](C)NC(=O)[C@H](CCCNC(=N)N)NC(=O)c1ccc(CN)cc1)C(=O)N[C@@H](CC(N)=O)C(=O)N[C@@H](CC(C)C)C(=O)N[C@H](C(=O)N[C@H](C(=O)N[C@@H](CCCNC(=N)N)C(=O)N[C@@H](CCC(N)=O)C(=O)N[C@@H](CCCNC(=N)N)C(=O)N[C@@H](Cc1ccc(O)cc1)C(N)=O)[C@@H](C)O)[C@@H](C)CC, also called compound No. 21) [4-Aminomethylbenzoyl-[Ala26, Nle28, Ile31]-PYY(25-36)] = 3.6

Prompt: Fill in: GBA EC50 Ratio (vs PYY(3-36)), [35S]GTPγS of Ac-[dY]AS[dP]RH[Cha][Cha]NL[Aib]TRQR[Cha]-NH2 (SMILES CC(=O)N[C@H](Cc1ccc(O)cc1)C(=O)N[C@@H](C)C(=O)N[C@@H](CO)C(=O)N1CCC[C@@H]1C(=O)N[C@@H](CCCNC(=N)N)C(=O)N[C@@H](Cc1c[nH]cn1)C(=O)N[C@@H](CC1CCCCC1)C(=O)N[C@@H](CC1CCCCC1)C(=O)N[C@@H](CC(N)=O)C(=O)N[C@@H](CC(C)C)C(=O)NC(C)(C)C(=O)N[C@H](C(=O)N[C@@H](CCCNC(=N)N)C(=O)N[C@@H](CCC(N)=O)C(=O)N[C@@H](CCCNC(=N)N)C(=O)N[C@@H](CC1CCCCC1)C(N)=O)[C@@H](C)O, also called compound No. 121) [Ac-[D-Tyr21, D-Pro24, Cha27,28,36, Aib31]-PYY(21-36)] is ___
Response: 1.3

Prompt: Fill in: GBA EC50 Ratio (vs PYY(3-36)), [35S]GTPγS of Suc-S[dP]RH[Cha][Cha]NK[Aib]TRQR[Cha]-NH2 (SMILES C[C@@H](O)[C@H](NC(=O)C(C)(C)NC(=O)[C@H](CCCCN)NC(=O)[C@H](CC(N)=O)NC(=O)[C@H](CC1CCCCC1)NC(=O)[C@H](CC1CCCCC1)NC(=O)[C@H](Cc1c[nH]cn1)NC(=O)[C@H](CCCNC(=N)N)NC(=O)[C@H]1CCCN1C(=O)[C@H](CO)NC(=O)CCC(=O)O)C(=O)N[C@@H](CCCNC(=N)N)C(=O)N[C@@H](CCC(N)=O)C(=O)N[C@@H](CCCNC(=N)N)C(=O)N[C@@H](CC1CCCCC1)C(N)=O, also called compound No. 167) [3-Carboxypropionyl-[D-Pro24, Cha27,28,36, Lys30, Aib31]-PYY(23-36)] is ___
Response: 1.1

Prompt: Fill in: GBA EC50 Ratio (vs PYY(3-36)), [35S]GTPγS of [4Amb]RAYINL[Nle]TRQRY-NH2 (N-terminus assumed; SMILES CCCC[C@H](NC(=O)[C@H](CC(C)C)NC(=O)[C@H](CC(N)=O)NC(=O)[C@@H](NC(=O)[C@H](Cc1ccc(O)cc1)NC(=O)[C@H](C)NC(=O)[C@H](CCCNC(=N)N)NC(=O)c1ccc(CN)cc1)[C@@H](C)CC)C(=O)N[C@H](C(=O)N[C@@H](CCCNC(=N)N)C(=O)N[C@@H](CCC(N)=O)C(=O)N[C@@H](CCCNC(=N)N)C(=O)N[C@@H](Cc1ccc(O)cc1)C(N)=O)[C@@H](C)O, also called compound No. 42) [4-Aminomethylbenzoyl-[Ala26, Ile28, Nle31]-PYY(25-36)] is ___
Response: 5.7

Prompt: Fill in: GBA EC50 Ratio (vs PYY(3-36)), [35S]GTPγS of [4Amb]RAYINLITRQR[Phe(4-Me)]-NH2 (N-terminus assumed; SMILES CC[C@H](C)[C@H](NC(=O)[C@H](Cc1ccc(O)cc1)NC(=O)[C@H](C)NC(=O)[C@H](CCCNC(=N)N)NC(=O)c1ccc(CN)cc1)C(=O)N[C@@H](CC(N)=O)C(=O)N[C@@H](CC(C)C)C(=O)N[C@H](C(=O)N[C@H](C(=O)N[C@@H](CCCNC(=N)N)C(=O)N[C@@H](CCC(N)=O)C(=O)N[C@@H](CCCNC(=N)N)C(=O)N[C@@H](Cc1ccc(C)cc1)C(N)=O)[C@@H](C)O)[C@@H](C)CC, also called compound No. 15) [4-Aminomethylbenzoyl-[Ala26, Ile28,31, Phe(4Me)36]-PYY(25-36)] is ___
Response: 5.5
